- test: Oral bioavailability in CD rat at 2 mg/kg administered as single dose
- Assay type: ADME, organism-based
- testContext: in vivo
measurementType: bioavailability (%)
One number for each entry, in %.

Task: Return reported bioavailability; argument: c1ccc(Cc2ncc3c(n2)CCNCC3)cc1
Output: 44

* * *

- system: 5-hydroxytryptamine receptor 2C (Homo sapiens) (UniProt P28335)
- Sequence (whole entry): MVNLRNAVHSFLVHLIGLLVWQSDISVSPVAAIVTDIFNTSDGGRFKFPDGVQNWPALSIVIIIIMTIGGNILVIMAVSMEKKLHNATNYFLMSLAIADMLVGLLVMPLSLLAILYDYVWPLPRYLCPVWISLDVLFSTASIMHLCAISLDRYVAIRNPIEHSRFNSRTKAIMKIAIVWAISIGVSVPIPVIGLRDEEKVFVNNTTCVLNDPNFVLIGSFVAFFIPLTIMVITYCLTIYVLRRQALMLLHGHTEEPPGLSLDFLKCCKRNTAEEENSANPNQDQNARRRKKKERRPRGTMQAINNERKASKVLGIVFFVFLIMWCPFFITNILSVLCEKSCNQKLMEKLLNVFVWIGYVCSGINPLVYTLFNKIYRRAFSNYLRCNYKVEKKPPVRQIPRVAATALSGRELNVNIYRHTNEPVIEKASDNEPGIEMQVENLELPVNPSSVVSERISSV
- test: Agonist activity at human 5HT2C receptor expressed in CHO-K1 cells assessed as increase of fluorescence based calcium mobilization at 10 uM by FLIPR assay relative to control
- Format: functional, cell-based
measurementType: Emax (%)
Give bare numbers, in %.

Task: Reported Emax for 5-hydroxytryptamine receptor 2C (Homo sapiens) (UniProt P28335), given Clc1ccccc1Cc1ncc2c(n1)CCNCC2 ?
Output: 38

Task: Reported Emax for 5-hydroxytryptamine receptor 2C (Homo sapiens) (UniProt P28335), given c1ccc(Cc2ncc3c(n2)CCNC3)cc1 ?
Output: 64

Task: Reported Emax for 5-hydroxytryptamine receptor 2C (Homo sapiens) (UniProt P28335), given c1ccc(CCc2ncc3c(n2)CCNC3)cc1 ?
Output: 50

Task: Reported Emax for 5-hydroxytryptamine receptor 2C (Homo sapiens) (UniProt P28335), given c1ccc(Cc2ncc3c(n2)CNCC3)cc1 ?
Output: 27

// below: Emax requested for another compound
Task: Reported Emax for 5-hydroxytryptamine receptor 2C (Homo sapiens) (UniProt P28335), given FC(F)(F)c1ccccc1Cc1ncc2c(n1)CCNCC2 ?
Output: 15
